- Tested on: SK-MEL-2
- assay details: NCI tumour cell line growth inhibition, 48 h
Active and inactive are the calls of the source. No stated cut-off is given here; in the data, active = GI50 up to about 1.1 µM and inactive = higher.
recorded metric: GI50

Here is how some compounds turned out for GI50.
> print(dat)
                                   compound  target.or.test.system  recorded.metric           meas.value
1  Nc1nc(=O)c2cc(NCc3ccc(C(=O)NC(CCC(=O)O)C(=O)O)cc3)ccc2[nH]1 (centres undefined)               SK-MEL-2             GI50  > 100 µM (inactive)
2  O=C1C=CC=C/C1=C1\N=C(c2ccccc2OCC(=O)c2ccc(Br)cc2)SS1               SK-MEL-2             GI50   42.5 µM (inactive)
3  C=[N+](CNC(=O)CNC(=O)C(Cc1ccccc1)NC(=O)OC(C)(C)C)C(=O)CNC(=O)C(Cc1ccccc1)NC(=O)OC(C)(C)C (centres undefined)               SK-MEL-2             GI50  > 100 µM (inactive)

Now examine the next entry.
Query: GI50; subject: "C/C1=N\[N-]C(=O)c2ccccc2C(=O)N/N=C(\C)c2cccc1n2.O=[N+]([O-])[O-].[Zn+2]"
> 100 µM (inactive)

###

- System: OVCAR-8
- assay details: NCI tumour cell line growth inhibition, 48 h
Active and inactive are the calls of the source. Rule as the data show it: active = GI50 up to about 1.1 µM and inactive = higher.
Parameter call: string, one of active, inactive

Tell me the recorded outcome of this test for COc1c(OC(C)C)c(OC(C)C)c2oc(=O)n3c2c1C(c1ccccc1-n1c(C)ccc1C)C=C3 (stereo not drawn) .
inactive

Now try "O=C1C=C(Nc2ccc(S(=O)(=O)Nc3ncccn3)cc2)c2ccccc2C1=O" .
inactive

Same read-out for COc1cc(C2c3[nH]c4ccccc4c3C[C@H]3COC(=O)N23)cc(OC)c1OC (stereo partly drawn) ?
active

Same for "CN1CCN(C(=S)N(C(=O)c2cccs2)C2CCCCC2)CC1"
inactive

Same question, "Cn1cnnc1Sc1c([N+](=O)[O-])ncn1C" this time
inactive

Same question for "CCN(CC)P(=O)(c1ccc2c(c1)OCCOCCOCCOCCO2)N(CC)CC" please.
inactive

Cool, now "Cc1cc2c(cc1Cl)SC(NNC(=O)c1ccccc1)=NS2(=O)=O"
inactive

###

Each entry below carries its reported GI50.
- Test system: MOLT-4
- assay details: NCI tumour cell line growth inhibition, 48 h
Activity calls are given as the source filed them. Cut-off read from the data, not from the text of the source: active = GI50 up to about 1.1 µM and inactive = higher.

Would you please look over these solved cases?
> print(dat)
                                   molecule  target.or.test.system           meas.value
1  CCN(CC)C(=S)SC(C(=O)Nc1nnc(-c2ccccc2)o1)c1ccccc1 (stereo not given)                 MOLT-4   2.88 µM (inactive)
2     CCCCCCCCCCCCCCCCS(=O)(=O)c1ccc(NN)cc1                 MOLT-4   6.43 µM (inactive)
3  CC1(C(=O)O)CCC[C@@]2(C)C1CC[C@@]1(C)c3cocc3CCC21 (stereo not given in full)                 MOLT-4  > 100 µM (inactive)
4  O=C1CSC(c2cccc(Cl)c2)N1c1ccc(-n2c(-c3ccccc3)nc3ccccc3c2=O)cc1 (stereo not given)                 MOLT-4   5.47 µM (inactive)
5            c1ccc(CN(Cn2cccn2)Cn2cccn2)nc1                 MOLT-4  > 100 µM (inactive)
6  [N-]=[N+]=NC1=C(C(=O)c2ccccc2)C(=O)c2cccc3cccc1c23                 MOLT-4     23 µM (inactive)
7  Cc1cc2c(C(C)C)c(O)c(O)c(C=O)c2c(O)c1-c1c(C)cc2c(C(C)C)c(O)c(O)c(C=O)c2c1O                 MOLT-4   2.24 µM (inactive)
8              O=C(CCSC1=NCCCN1)c1ccc(F)cc1                 MOLT-4   2.62 µM (inactive)
9  C/C1=N\[N-]C(=O)c2ccccc2C(=O)N/N=C(\C)c2cccc1n2.O=[N+]([O-])[O-].[Zn+2]                 MOLT-4  > 100 µM (inactive)

# input for lookup
What value of measured GI50 is listed for "O=C(/C=C/c1ccc([N+](=O)[O-])cc1)c1nc2ccccc2[nH]1" ?
25.2 µM (inactive)

###

- Tested on: PC-3
- assay details: NCI tumour cell line growth inhibition, 48 h
Calls of active or inactive are those of the source. No stated cut-off is given here; in the data, active = GI50 up to about 1.1 µM and inactive = higher.
recorded metric: GI50

Sample answers from the record:
> print(dat)
                                   compound           meas.value
1  NC(CSC1c2ccccc2-c2ccccc21)C(=O)O (stereo not given)  > 100 µM (inactive)
2  CC(NC(=O)C(CC(=O)OCc1ccccc1)NC(=O)OCc1ccccc1)c1ccccc1 (stereo not given)   35.3 µM (inactive)
3  N#Cc1c(-c2ccc(Cl)cc2)cc(-c2ccc(Nc3ccnc4cc(Cl)ccc34)cc2)nc1N  > 100 µM (inactive)
4  Cc1ccc2c3c1O[C@H]1c4nc5ccccc5cc4C[C@@]4(O)[C@@H](C2)N(CC2CC2)CC[C@]314   3.95 µM (inactive)
5  CCCCCCCCCCCCCC1=C(O)C(=O)C(CC2=C(O)C(=O)C(CCCCCCCCCCCCC)=C(O)C2=O)=C(O)C1=O  > 100 µM (inactive)
6  O=C1NC(=O)C2(CCC(O)C2)c2cc[n+]([O-])cc21 (stereo not given)  > 100 µM (inactive)

Note: attention shifts to another entry.
Look up GI50 with PC-3 for this compound: CCN(CC)C(=O)CCNC(C)Cc1c[nH]c2ccccc12 (stereo not given)
> 100 µM (inactive)

###

The following molecules are listed with their measured GI50 values.
- Tested on: MDA-MB-231
- assay details: NCI tumour cell line growth inhibition, 48 h
Activity calls are given as the source filed them. Rule as the data show it: active = GI50 up to about 1.1 µM and inactive = higher.

Worked examples, 4 molecules total:
> print(dat)
                                   molecule  recorded.metric            meas.value
1  NC(CSC(c1ccccc1)(c1ccccc1)c1ccccc1)C(=O)O (stereo not given)             GI50    1.42 µM (inactive)
2  CC1CCC(=O)C(C(=O)CC2CC(=O)NC(=O)C2)C1 (stereo not given)             GI50   > 100 µM (inactive)
3       Nc1ccn([C@H]2CO[C@@H](CO)O2)c(=O)n1             GI50  > 55.7 µM (inactive)
4  CC1OC(OC2C(OC3CCC4(C)C(CCC5(C)C4CC=C4C6CC(C)(C)CCC6(C(=O)O)CCC45C)C3(C)CO)OCC(O)C2O)C(O)C(O)C1O (stereo not given)             GI50    17.9 µM (inactive)

GI50 for C[C@H](O)C1CC(Cn2nnc3c(N)ncnc32)C1(C)C (stereo not given in full) ?
> 100 µM (inactive)

###

- System: CAKI-1
- assay details: NCI tumour cell line growth inhibition, 48 h
The source made the active and inactive calls. No stated cut-off is given here; in the data, active = GI50 up to about 1.1 µM and inactive = higher.
recorded metric: GI50

> print(dat)
                                   compound           meas.value
1  C/C1=N\[N-]C(=O)c2ccccc2C(=O)N/N=C(\C)c2cccc1n2.O=[N+]([O-])[O-].[Zn+2]  > 100 µM (inactive)

Which GI50 value belongs to "CC(=O)O[C@@H]1[C@H](C(C)C)[C@@H](OC(C)=O)C/C(C)=C/CC[C@]2(C)O[C@@H]12" ?
> 100 µM (inactive)

Would you mind doing "COc1ccc(/C=C2\C(=O)NC(=O)c3ccccc32)cc1OC" as well?
26.7 µM (inactive)

Input COc1cc2c(cc1OC)C(CC(=O)NN=C(C)C)NCC2 (configuration not stated)
> 100 µM (inactive)

And the next one, CCCCCCCCCCCCCCNC(=O)CCC(NC(=O)c1ccc(N(C)Cc2cnc3nc(N)nc(N)c3n2)cc1)C(=O)NCCCCCCCCCCCCCC (configuration not stated) ?
10.4 µM (inactive)

Entry "CCOC(=O)/C(C[C@H]1OC(C)(C)O[C@@H]1[C@H]1COC(C)(C)O1)=N/O" please
> 100 µM (inactive)

###

Listed below: GI50 values for each entry.
- Test system: XF498
- assay details: NCI tumour cell line growth inhibition, 48 h
Active and inactive are the calls of the source. No stated cut-off is given here; in the data, active = GI50 up to about 1.1 µM and inactive = higher.

Some molecules with known GI50 results, for comparison:
> print(dat)
                                   molecule  recorded.metric           meas.value
1  O=S(=O)(c1ccccc1)C1CN2OC1(S(=O)(=O)c1ccccc1)CC21CCCCC1 (centres undefined)             GI50   32.3 µM (inactive)
2  Cc1ccc(NC(=O)C(=O)C(C(=O)/C=C/c2ccccc2)C2OC(=O)c3ccccc32)c(C)c1 (centres undefined)             GI50  > 100 µM (inactive)
3  O=C1OC(c2ccc(Cl)c3ccccc23)c2ccccc21 (centres undefined)             GI50  > 100 µM (inactive)
4  CCOc1ccc(/N=N/c2ccc3oc(=O)c(/C(C)=N\NC(=O)CC(=O)Nc4ccc(Cl)cc4)cc3c2)cc1             GI50   2.07 µM (inactive)
5  c1ccc(SC(CCCCC(Sc2ccccc2)Sc2ccccc2)Sc2ccccc2)cc1             GI50  > 100 µM (inactive)
6  CCOC(=O)Oc1ccc2[nH]c3c(C)cc(N)c(C)c3c2c1             GI50  > 100 µM (inactive)

Hi! What's the reported GI50 for CC(=O)OC1CC2C(C)(C)C(=O)C=C[C@]2(C)C2CCC3(C)C(=CC(=O)C3c3ccoc3)[C@]12C (some centres undefined) on XF498?
25.8 µM (inactive)

Can you check "COc1ccccc1/C=C(\NC(=O)c1ccccc1)c1nc2ccc(Cl)cc2[nH]1" next?
34.4 µM (inactive)

Try this molecule too: CCCN(CCCC(NC(C)=O)C(=O)NCc1ccccc1)C(=O)NCCCl (centres undefined)
> 100 µM (inactive)
